quantity: melting point

Record "CC(C)(C)OC(=O)CC[C@H](NC(=O)OCc1ccccc1)C(=O)N[C@@H](CCCCNC(=O)OC(C)(C)C)C(=O)C(=O)NCCc1ccccc1" . Reported melting point: 148 to 150 °C

Record CN(C)NC(=O)CC[C@H](NC(=O)OCc1ccccc1)C(=O)N[C@@H](CCCCNC(=O)OC(C)(C)C)C(O)C(=O)NCc1ccccc1 (stereo partly drawn) . Reported melting point: 123 to 125 °C

Record CCCNC(=O)C(O)[C@H](CCCCNC(=O)OC(C)(C)C)NC(=O)[C@H](CCC(=O)OC(C)(C)C)NC(=O)OCc1ccccc1 (stereo partly drawn) . Reported melting point: 73 to 75 °C

Record "CC(C)C[C@H](NC(=O)C(=O)[C@H](CCCCNC(=O)OC(C)(C)C)NC(=O)[C@H](CCC(=O)OC(C)(C)C)NC(=O)OCc1ccccc1)C(=O)N(C)C" . Reported melting point: 119 to 122 °C

Record CC(C)(C)OC(=O)NCCCC[C@H](NC(=O)[C@H](CCC(=O)NCCNC(=O)OC(C)(C)C)NC(=O)OCc1ccccc1)C(O)C(=O)NCc1ccccc1 (stereo partly drawn) . Reported melting point: 170 to 172 °C

Record CC(C)(C)OC(=O)CC[C@H](NC(=O)OCc1ccccc1)C(=O)N[C@@H](CCCCNC(=O)OC(C)(C)C)C(O)C(=O)Nc1ccccc1 (single isomer, unassigned) . Reported melting point: 146 to 147 °C

Record "CCCNC(=O)C(=O)[C@H](CCCCNC(=O)OC(C)(C)C)NC(=O)[C@H](CCC(=O)OC(C)(C)C)NC(=O)OCc1ccccc1" . Reported melting point: 131 to 133 °C

Record "CC(C)(C)OC(=O)NCCCC[C@H](NC(=O)[C@H](CCC(N)=O)NC(=O)OCc1ccccc1)C(=O)C(=O)NCc1ccccc1" . Reported melting point: 193 to 195 °C

Record CNC(=O)CC[C@H](NC(=O)OCc1ccccc1)C(=O)N[C@@H](CCCCNC(=O)OC(C)(C)C)C(O)C(=O)NCc1ccccc1 (stereo partly drawn) . Reported melting point: 147 to 149 °C

Record CC(C)(C)OC(=O)CC[C@H](NC(=O)OCc1ccccc1)C(=O)N[C@@H](CCCCNC(=O)OC(C)(C)C)C(O)C(=O)O (stereo partly drawn) . Reported melting point: 48 to 50 °C

Record COC(=O)C(O)[C@H](CCCCNC(=O)OC(C)(C)C)NC(=O)[C@H](CCC(=O)OC(C)(C)C)NC(=O)OCc1ccccc1 (stereo partly drawn) . Reported melting point: 101 to 103 °C

Record "CC(C)(C)OC(=O)CC[C@H](NC(=O)OCc1ccccc1)C(=O)N[C@@H](CCCCNC(=O)OC(C)(C)C)C(=O)C(=O)NCc1ccccc1" . Reported melting point: 130 to 132 °C

---

Kindly supply the reported melting point values for the records listed here.

Record "CN(C)C(=O)[C@H](CCCCNC(=O)OC(C)(C)C)NC(=O)C(=O)[C@H](CCCCNC(=O)OC(C)(C)C)NC(=O)[C@H](CCC(=O)OC(C)(C)C)NC(=O)OCc1ccccc1" . Reported melting point: 152 to 155 °C

Record "CN(C)C(=O)[C@H](Cc1ccccc1)NC(=O)C(=O)[C@H](CCCCNC(=O)OC(C)(C)C)NC(=O)[C@H](CCC(=O)OC(C)(C)C)NC(=O)OCc1ccccc1" . Reported melting point: 102 to 104 °C

Record CN(C)C(=O)[C@H](Cc1ccccc1)NC(=O)C(O)[C@H](CCCCNC(=O)OC(C)(C)C)NC(=O)[C@H](CCC(=O)OC(C)(C)C)NC(=O)OCc1ccccc1 (single isomer, unassigned) . Reported melting point: 132 to 134 °C

Record CC(C)(C)OC(=O)NCCCC[C@H](NC(=O)[C@H](CCC(N)=O)NC(=O)OCc1ccccc1)C(O)C(=O)NCc1ccccc1 (stereo partly drawn) . Reported melting point: 138 to 141 °C

Record "CN(C)C(=O)[C@H](CC(N)=O)NC(=O)C(=O)[C@H](CCCCNC(=O)OC(C)(C)C)NC(=O)[C@H](CCC(=O)OC(C)(C)C)NC(=O)OCc1ccccc1" . Reported melting point: 122 to 124 °C

Record CN(C)C(=O)[C@H](CC(N)=O)NC(=O)C(O)[C@H](CCCCNC(=O)OC(C)(C)C)NC(=O)[C@H](CCC(=O)OC(C)(C)C)NC(=O)OCc1ccccc1 (stereo partly drawn) . Reported melting point: 88 to 91 °C

---

system: Arg-gingipain (RGP); test: Inhibitory activity against Arg-gingipain (RGP), substrate Z-Phe-Arg-MCA, for comparison; assay type: biochemical, Porphyromonas gingivalis; details: compound concentration 10^−6 mol/l
Kindly supply the reported Enzyme inhibitory activity (%) RGP values for the records listed here.
Give the value in % but do not write % after it.

Record "CN(C)C(=O)[C@H](CC(N)=O)NC(=O)C(=O)[C@H](CCCCN)NC(=O)[C@H](CCC(=O)O)NC(=O)OCc1ccccc1.Cl" . Reported Enzyme inhibitory activity (%) RGP: 8.5

Record "Cl.NCCCC[C@H](NC(=O)[C@H](CCC(=O)O)NC(=O)OCc1ccccc1)C(=O)C(=O)NCCc1ccccc1" . Reported Enzyme inhibitory activity (%) RGP: 7.7

Record "CN(C)C(=O)CC[C@H](NC(=O)OCc1ccccc1)C(=O)N[C@@H](CCCCN)C(=O)C(=O)NCc1ccccc1.Cl" . Reported Enzyme inhibitory activity (%) RGP: 0.0

---

Tested on: Arg-gingipain (RGP)
Experiment: Inhibitory activity against Arg-gingipain (RGP), substrate Z-Phe-Arg-MCA, for comparison
Assay type: biochemical, Porphyromonas gingivalis
Details: compound concentration 10^−6 mol/l
Method: Enzyme inhibitory activity (%)=[1−(F/F0)]×100 The inhibitory activity against Arg-gingipain (hereinafter referred to as “RGP”) was measured for comparison in a manner similar to the above, by the process described in Journal Biological Chemistry, Vol. 269, 21371-21378 (1994) using Z-Phe-Arg-MCA as a substrate.
Kindly supply the reported Enzyme inhibitory activity (%) RGP values for the records listed here.
Give the value in % but do not write % after it.

Record "Cl.NCCCC[C@H](NC(=O)[C@H](CCC(N)=O)NC(=O)OCc1ccccc1)C(=O)C(=O)NCc1ccccc1" . Reported Enzyme inhibitory activity (%) RGP: 9.0

Record "Cl.NCCCC[C@H](NC(=O)[C@H](CCC(=O)O)NC(=O)OCc1ccccc1)C(=O)C(=O)Nc1ccccc1" . Reported Enzyme inhibitory activity (%) RGP: 0.0

Record "CN(NC(=O)CC[C@H](NC(=O)OCc1ccccc1)C(=O)N[C@@H](CCCCN)C(=O)C(=O)NCc1ccccc1)c1ccccc1.Cl.Cl" . Reported Enzyme inhibitory activity (%) RGP: 0.0

Record "Cl.NCCCC[C@H](NC(=O)[C@H](CCC(=O)O)NC(=O)OCc1ccccc1)C(=O)C(=O)NCc1ccccc1" . Reported Enzyme inhibitory activity (%) RGP: 4.0

Record "CN(C)C(=O)[C@H](CCC(=O)O)NC(=O)C(=O)[C@H](CCCCN)NC(=O)[C@H](CCC(=O)O)NC(=O)OCc1ccccc1.Cl" . Reported Enzyme inhibitory activity (%) RGP: 0.0

Record "CN(C)NC(=O)CC[C@H](NC(=O)OCc1ccccc1)C(=O)N[C@@H](CCCCN)C(=O)C(=O)NCc1ccccc1.Cl.Cl" . Reported Enzyme inhibitory activity (%) RGP: 4.1

Record "CN(C)C(=O)[C@H](Cc1ccccc1)NC(=O)C(=O)[C@H](CCCCN)NC(=O)[C@H](CCC(=O)O)NC(=O)OCc1ccccc1.Cl" . Reported Enzyme inhibitory activity (%) RGP: 5.7

Record "Cl.Cl.NCCCC[C@H](NC(=O)[C@H](CCC(=O)NCCN)NC(=O)OCc1ccccc1)C(=O)C(=O)NCc1ccccc1" . Reported Enzyme inhibitory activity (%) RGP: 0.5

Record "CCCNC(=O)C(=O)[C@H](CCCCN)NC(=O)[C@H](CCC(=O)O)NC(=O)OCc1ccccc1.Cl" . Reported Enzyme inhibitory activity (%) RGP: 0.0

---

Kindly supply the reported Enzyme inhibitory activity (%) KGP values for the records listed here.
target: Lys-gingipain (KGP) (Porphyromonas gingivalis); details: compound concentration 10^−6 mol/l
Write the numeric value and append its unit.

Record "CN(NC(=O)CC[C@H](NC(=O)OCc1ccccc1)C(=O)N[C@@H](CCCCN)C(=O)C(=O)NCc1ccccc1)c1ccccc1.Cl.Cl" . Reported Enzyme inhibitory activity (%) KGP: 100.0%

Record "CN(C)C(=O)[C@H](Cc1ccccc1)NC(=O)C(=O)[C@H](CCCCN)NC(=O)[C@H](CCC(=O)O)NC(=O)OCc1ccccc1.Cl" . Reported Enzyme inhibitory activity (%) KGP: 99.7%

Record "CN(C)C(=O)[C@H](CCC(=O)O)NC(=O)C(=O)[C@H](CCCCN)NC(=O)[C@H](CCC(=O)O)NC(=O)OCc1ccccc1.Cl" . Reported Enzyme inhibitory activity (%) KGP: 98.6%

Record "CC(C)C[C@H](NC(=O)C(=O)[C@H](CCCCN)NC(=O)[C@H](CCC(=O)O)NC(=O)OCc1ccccc1)C(=O)N(C)C.Cl" . Reported Enzyme inhibitory activity (%) KGP: 99.9%

Record "Cl.NCCCC[C@H](NC(=O)[C@H](CCC(=O)O)NC(=O)OCc1ccccc1)C(=O)C(=O)NCCc1ccccc1" . Reported Enzyme inhibitory activity (%) KGP: 98.0%

Record "Cl.Cl.NCCCC[C@H](NC(=O)[C@H](CCC(=O)NCCN)NC(=O)OCc1ccccc1)C(=O)C(=O)NCc1ccccc1" . Reported Enzyme inhibitory activity (%) KGP: 99.9%

Record "CCCNC(=O)C(=O)[C@H](CCCCN)NC(=O)[C@H](CCC(=O)O)NC(=O)OCc1ccccc1.Cl" . Reported Enzyme inhibitory activity (%) KGP: 99.6%

Record "Cl.NCCCC[C@H](NC(=O)[C@H](CCC(N)=O)NC(=O)OCc1ccccc1)C(=O)C(=O)NCc1ccccc1" . Reported Enzyme inhibitory activity (%) KGP: 100.0%

Value source: patent US6951843B2
